target: tSTATcc (truncated STAT1, C-C dimer) (UniProt P42224 132-713, A656C;N658C); experiment: Spec-seq
Sequence (P42224 132-713 A656C/N658C): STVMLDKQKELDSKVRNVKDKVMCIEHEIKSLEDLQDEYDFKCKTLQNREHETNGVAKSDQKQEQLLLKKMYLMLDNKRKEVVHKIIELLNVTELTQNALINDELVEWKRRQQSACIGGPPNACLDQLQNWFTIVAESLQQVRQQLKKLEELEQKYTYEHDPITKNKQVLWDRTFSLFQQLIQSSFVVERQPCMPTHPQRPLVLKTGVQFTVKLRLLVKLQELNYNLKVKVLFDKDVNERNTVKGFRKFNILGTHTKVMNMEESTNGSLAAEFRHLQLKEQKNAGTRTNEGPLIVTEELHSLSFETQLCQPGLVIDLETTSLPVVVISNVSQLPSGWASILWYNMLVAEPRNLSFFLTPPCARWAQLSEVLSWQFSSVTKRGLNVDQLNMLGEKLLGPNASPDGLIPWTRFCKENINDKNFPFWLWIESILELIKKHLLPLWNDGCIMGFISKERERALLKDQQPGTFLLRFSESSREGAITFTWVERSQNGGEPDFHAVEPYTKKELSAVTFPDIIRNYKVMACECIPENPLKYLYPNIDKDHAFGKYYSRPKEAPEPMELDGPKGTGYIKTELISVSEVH
Give binding signal for every item shown.

binding signal measured on 1T_GAS (dsDNA) DNA 1: GCTGCCACTAGAGTTTTTCTAGGAAAAGATCATCAAGAGCACACGGG DNA 2: CCCGTGTGCTCTTGATGATCTTTTCCTAGAAAAACTCTAGTGGCAGC = 1.7 kT (ddG vs 2C_GAS)

Reported binding signal ( 1C_GAS (dsDNA) DNA 1: GCTGCCACTAGAGTTTTTTCGGGAAAAGATCATCAAGAGCACACGGG DNA 2: CCCGTGTGCTCTTGATGATCTTTTCCCGAAAAAACTCTAGTGGCAGC ) = 1.6 kT (ddG vs 2C_GAS)

Query 3C_GAS (dsDNA) DNA 1: GCTGCCACTAGAGTTTTCCCGGGAAAAGATCATCAAGAGCACACGGG DNA 2: CCCGTGTGCTCTTGATGATCTTTTCCCGGGAAAACTCTAGTGGCAGC yields binding signal of 1.6 kT (ddG vs 2C_GAS)

Entry 0T_GAS (dsDNA) DNA 1: GCTGCCACTAGAGTTTTTTTAGGAAAAGATCATCAAGAGCACACGGG DNA 2: CCCGTGTGCTCTTGATGATCTTTTCCTAAAAAAACTCTAGTGGCAGC , binding signal reported as 1.5 kT (ddG vs 2C_GAS)

Entry under test: 2T_GAS (dsDNA) DNA 1: GCTGCCACTAGAGTTTTCCTAGGAAAAGATCATCAAGAGCACACGGG DNA 2: CCCGTGTGCTCTTGATGATCTTTTCCTAGGAAAACTCTAGTGGCAGC . Its binding signal was 1.9 kT (ddG vs 2C_GAS)
